Assay remarks: growth inhibition of DIPG glioma cells, dose response, cell-based, SU-DIPG-XVII, MIPE5.0, CellTiter-Glo, qHTS (AID 1347060);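 on AC50: cells exposed to compound for 48 hours before viability readout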
Assay conditions: SU-DIPG-XVII viability, CellTiter-Glo ATP luminescence
Records with an inconclusive call do not appear. Activity calls are given as the source filed them. Cut-off not given; nearly all actives show AC50 up to about 26 µM.
Possible outcomes: yes (1) (active), no (0) (inactive)

[[record]]
compound = "COc1ccc(CCN(C)CCCOc2ccc(S(=O)(=O)c3c(C(C)C)c4ccccc4n3C)cc2)cc1OC"
classification = "yes (1)"

[[record]]
compound = "CC(=O)N1CCN(c2ccc(OC[C@H]3CO[C@](Cn4ccnc4)(c4ccc(Cl)cc4Cl)O3)cc2)CC1"
classification = "no (0)"

[[record]]
compound = "O=C(O)c1ccc2cc(-c3ccc(O)c(C45CC6CC(CC(C6)C4)C5)c3)ccc2c1"
classification = "yes (1)"

[[record]]
compound = "O=c1[nH]c(-c2ccc(C(F)(F)F)cc2)nc2c1CSCC2"
classification = "no (0)"

[[record]]
compound = "CC(=O)NC[C@H]1CN(c2ccc(N3CCOCC3)c(F)c2)C(=O)O1"
classification = "no (0)"

[[record]]
compound = "CO[C@H]1O[C@@H]2O[C@@]3(C)CC[C@H]4[C@H](C)CC[C@@H]([C@H]1C)[C@@]24OO3"
classification = "no (0)"

[[record]]
compound = "CN1C(=O)C(Cc2c[nH]c3ccccc23)NC1=S (stereo not given)"
classification = "no (0)"

[[record]]
compound = "Nc1nc(F)nc2c1ncn2[C@@H]1O[C@H](COP(=O)(O)O)[C@@H](O)[C@@H]1O"
classification = "yes (1)"

[[record]]
compound = "CC[C@]1(O)CC2CN(CCc3c([nH]c4ccccc34)[C@@](C(=O)OC)(c3cc4c(cc3OC)N(C)[C@H]3[C@@](O)(C(=O)OC)[C@H](OC(C)=O)[C@]5(CC)C=CCN6CC[C@]43[C@@H]65)C2)C1 (stereo not given in full)"
classification = "yes (1)"

[[record]]
compound = "COc1ccc2nc3cc(Cl)ccc3c(Nc3cc(CN4CCCC4)c(O)c(CN4CCCC4)c3)c2n1"
classification = "yes (1)"

[[record]]
compound = "Cc1ccc(/C=N/NC(=O)c2ccccc2Oc2ccccc2)o1"
classification = "no (0)"

[[record]]
compound = "O=c1c(O)c(-c2ccc(O)cc2)oc2cc(O)cc(O)c12"
classification = "no (0)"

[[record]]
compound = "COC(=O)/C=C/C(=O)OC"
classification = "no (0)"

[[record]]
compound = "CCOC(=O)c1ccc(OC(=O)CCCCCN=C(N)N)cc1"
classification = "no (0)"

[[record]]
compound = "O=C(O)CCc1ccc(NCc2cccc(Oc3ccccc3)c2)cc1"
classification = "no (0)"

[[record]]
compound = "COC(=O)Nc1nc2ccc(C(=O)c3ccc(F)cc3)cc2[nH]1"
classification = "yes (1)"

[[record]]
compound = "O=C1C(Cl)=C(NCCN2CCOCC2)C(=O)c2ncccc21"
classification = "yes (1)"

[[record]]
compound = "CC(C)c1ccc2c(c1)c(SC(C)(C)C)c(CC(C)(C)C(=O)O)n2Cc1ccc(Cl)cc1"
classification = "yes (1)"

[[record]]
compound = "Oc1ccc2ccccc2c1SSc1c(O)ccc2ccccc12"
classification = "yes (1)"

[[record]]
compound = "Cc1cc2c(s1)Nc1ccccc1N=C2N1CCN(C)CC1"
classification = "no (0)"

